Assayed System: ULK3 (human) (UniProt Q6PHR2)
Sequence (Q6PHR2 whole entry, looked up): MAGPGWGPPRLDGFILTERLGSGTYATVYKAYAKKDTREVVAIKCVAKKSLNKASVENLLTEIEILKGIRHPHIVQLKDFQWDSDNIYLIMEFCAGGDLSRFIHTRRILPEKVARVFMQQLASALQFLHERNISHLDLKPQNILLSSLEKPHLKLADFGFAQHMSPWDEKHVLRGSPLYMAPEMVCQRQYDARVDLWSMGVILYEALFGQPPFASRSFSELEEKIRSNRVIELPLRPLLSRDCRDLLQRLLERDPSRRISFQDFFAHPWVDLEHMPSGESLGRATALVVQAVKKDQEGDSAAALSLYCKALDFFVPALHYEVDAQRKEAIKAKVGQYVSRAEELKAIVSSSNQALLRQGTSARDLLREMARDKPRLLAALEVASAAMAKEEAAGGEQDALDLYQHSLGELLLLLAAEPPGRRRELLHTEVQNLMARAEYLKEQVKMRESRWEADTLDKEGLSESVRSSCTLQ
pIC50: −log10 of the molar value.
Metric: pIC50

Write down the reported pIC50 of CN1CC[C@H](c2c(O)cc(O)c3c(=O)cc(-c4ccccc4Cl)oc23)[C@H](O)C1 , test system: ULK3 (human) (UniProt Q6PHR2).
< 5.00

###

Assayed System: SGK223 (human) (UniProt Q86YV5)
Sequence (Q86YV5 whole entry, looked up): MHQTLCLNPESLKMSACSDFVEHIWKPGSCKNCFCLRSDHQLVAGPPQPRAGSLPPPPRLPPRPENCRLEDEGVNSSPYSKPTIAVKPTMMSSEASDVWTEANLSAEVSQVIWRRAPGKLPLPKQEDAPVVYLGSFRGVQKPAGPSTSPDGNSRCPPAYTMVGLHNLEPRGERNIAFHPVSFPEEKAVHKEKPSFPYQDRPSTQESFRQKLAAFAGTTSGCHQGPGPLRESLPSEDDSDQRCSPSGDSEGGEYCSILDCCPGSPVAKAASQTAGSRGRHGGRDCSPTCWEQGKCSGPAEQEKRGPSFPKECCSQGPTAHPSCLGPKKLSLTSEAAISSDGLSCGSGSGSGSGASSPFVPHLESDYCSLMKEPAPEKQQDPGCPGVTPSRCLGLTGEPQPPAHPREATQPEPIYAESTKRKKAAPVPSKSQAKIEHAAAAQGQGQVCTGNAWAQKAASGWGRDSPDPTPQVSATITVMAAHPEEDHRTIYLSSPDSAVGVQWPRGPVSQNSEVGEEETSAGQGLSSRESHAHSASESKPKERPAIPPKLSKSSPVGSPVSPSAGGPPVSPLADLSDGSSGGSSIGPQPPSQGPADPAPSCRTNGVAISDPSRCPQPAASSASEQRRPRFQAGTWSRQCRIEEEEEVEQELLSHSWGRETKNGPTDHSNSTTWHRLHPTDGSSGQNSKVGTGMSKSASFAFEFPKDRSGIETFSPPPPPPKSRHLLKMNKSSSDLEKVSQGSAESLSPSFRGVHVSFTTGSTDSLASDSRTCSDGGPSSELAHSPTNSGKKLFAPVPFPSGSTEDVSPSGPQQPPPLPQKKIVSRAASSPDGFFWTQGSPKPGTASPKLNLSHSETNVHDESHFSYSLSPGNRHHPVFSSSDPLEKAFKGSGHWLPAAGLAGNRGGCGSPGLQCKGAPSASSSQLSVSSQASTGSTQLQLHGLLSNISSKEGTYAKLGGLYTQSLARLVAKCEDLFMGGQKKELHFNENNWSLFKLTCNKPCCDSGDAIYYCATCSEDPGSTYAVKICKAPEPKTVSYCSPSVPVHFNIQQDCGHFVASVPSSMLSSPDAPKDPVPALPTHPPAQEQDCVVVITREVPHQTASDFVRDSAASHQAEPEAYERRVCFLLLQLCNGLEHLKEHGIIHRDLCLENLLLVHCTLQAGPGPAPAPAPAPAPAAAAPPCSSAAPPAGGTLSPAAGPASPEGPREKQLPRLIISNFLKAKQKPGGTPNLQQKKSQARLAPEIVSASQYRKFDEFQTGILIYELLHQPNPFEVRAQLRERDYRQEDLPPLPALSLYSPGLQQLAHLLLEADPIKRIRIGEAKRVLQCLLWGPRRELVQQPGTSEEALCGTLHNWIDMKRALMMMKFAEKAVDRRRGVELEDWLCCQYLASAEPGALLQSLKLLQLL
Metric: pIC50
Value format note: pIC50 is -log10 of concentration (mol/L); just state the number.

Could you tell me which pIC50 is on file for CN[C@@H]1C[C@H]2O[C@@](C)([C@@H]1OC)n1c3ccccc3c3c4c(c5c6ccccc6n2c5c31)C(=O)NC4 ?
5.30

// provenance: the kinase profiling compilation of Christmann-Franck et al. (2016)
